Test system: ACHN renal
Assay: NCI tumour cell line growth inhibition, 48 h
Would you mind telling me the reported TGI of each entry?
Give your result in µM as a bare value.

Entry c1ccc2c3c([nH]c2c1)C1(CCCCC1)c1c([nH]c2ccccc12)C31CCCCC1 : reported TGI = ?
59

Entry O=C1C(=C(C(=O)c2ccccc2)C(=O)c2ccccc2)OC(c2ccccc2)=C1C(=O)c1ccccc1 : reported TGI = ?
20.1

Entry N#C/C(=C\c1ccc(Br)cc1)c1nc(-c2cc3ccccc3oc2=O)cs1 : reported TGI = ?
26.1

Entry C[CH2][Sn]([CH2]C)([O]C(=O)c1cccc(F)c1)[O][Sn]([CH2]C)([CH2]C)[O]C(=O)c1cccc(F)c1 : reported TGI = ?
32.7

Entry O=C(CCCCCCC(=O)Nc1ccc2c(c1)/C(=C/c1ccc[nH]1)C(=O)N2)NO : reported TGI = ?
4.67

Entry O=C(/C=C/c1ccc(C(F)(F)F)cc1)c1ccc(Nc2nc(NCCO)nc(N3CCOCC3)n2)cc1 : reported TGI = ?
3.86

Entry CSC(=S)OC1C(CO[Si](C)(C)C(C)(C)C)OC2OC(C)(C)OC21 (configuration not stated) : reported TGI = ?
31.3

Entry CCSC(=O)/C=C1\CN(C(=O)OC(C)(C)C)C1C(=O)OC(C)(C)C (configuration not stated) : reported TGI = ?
8.82

Entry COC(=O)c1c(O)ccc2c1c1c(n2-c2ccc(OC)cc2)C(=O)c2ccccc2C1=O : reported TGI = ?
25.6
